Ref: patent US20080160035A1

For each entry below, report its STAT6 Bioassay IC50 (HEK293 STAT6 luciferase, 10 pM hIL-4) value.
ASSAYED SYSTEM: T1, hIL-4R on cells (STAT6-transfected HEK293, TF1, TF1/A12) (human, UniProt P24394 26-825)
T1 sequence (looked up): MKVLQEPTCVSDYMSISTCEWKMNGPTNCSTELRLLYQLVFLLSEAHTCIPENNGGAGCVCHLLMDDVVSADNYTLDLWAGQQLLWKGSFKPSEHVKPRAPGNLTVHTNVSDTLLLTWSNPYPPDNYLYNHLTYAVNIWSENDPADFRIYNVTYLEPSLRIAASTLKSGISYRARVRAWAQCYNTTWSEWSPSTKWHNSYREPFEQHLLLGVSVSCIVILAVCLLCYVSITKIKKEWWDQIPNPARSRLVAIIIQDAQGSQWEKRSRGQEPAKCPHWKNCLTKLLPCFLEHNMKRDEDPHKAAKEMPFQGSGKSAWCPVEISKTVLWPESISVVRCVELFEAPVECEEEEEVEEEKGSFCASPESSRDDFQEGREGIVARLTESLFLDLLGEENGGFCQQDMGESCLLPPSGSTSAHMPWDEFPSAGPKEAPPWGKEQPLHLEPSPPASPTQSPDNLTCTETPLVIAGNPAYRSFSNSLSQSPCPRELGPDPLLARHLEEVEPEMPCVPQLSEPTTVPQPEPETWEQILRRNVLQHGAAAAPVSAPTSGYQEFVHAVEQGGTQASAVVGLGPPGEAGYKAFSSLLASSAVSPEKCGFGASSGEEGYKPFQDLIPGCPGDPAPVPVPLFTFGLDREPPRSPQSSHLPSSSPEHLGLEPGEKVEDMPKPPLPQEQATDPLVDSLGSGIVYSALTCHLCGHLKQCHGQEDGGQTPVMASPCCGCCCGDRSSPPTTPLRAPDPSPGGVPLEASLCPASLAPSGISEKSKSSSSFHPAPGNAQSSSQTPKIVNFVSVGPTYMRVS
ASSAY NAME: cell-based or functional assay
Quick note: give the figure in nM, leave out the unit.

Determine from records and report STAT6 Bioassay IC50 (HEK293 STAT6 luciferase, 10 pM hIL-4) for VAK9C6-11 (antibody, V domains shown, Apparently tested with mouse constant region (anti-mouse IgG capture/detection)) VH: QVQLVESGGGVVQPGRSLRLSCAASGFTFSSYGMHWVRQAPGKGLEWVTVISYDGSIKYYVDSVKGRFTISRDNSKNTLFLQMNSLRVEDTAVYYCAKEGRKYGMDVWGQGTTVTVSS VL: DIQMTQSPSTLSASVGDRVTITCRASQIISSLLVWYQQKPGKAPKLLIYKASSLESGVPSRFSGSGSGTEFTLTISSLQPDDFATYYCQQYHSYMYTFGQGTKLEIK
0.48

Assign STAT6 Bioassay IC50 (HEK293 STAT6 luciferase, 10 pM hIL-4) to the following record: VAK10G12-5 (antibody, V domains shown, Apparently tested with mouse constant region (anti-mouse IgG capture/detection)) VH: QVQLVESGGGVVQPGGSLRLSCAASGFTFSSYGMHWVRQAPGRGLEWVAVLSYDGSKEFYADSVKVRFTVSRDNSKNTLYLQMSSLRVEDTAIYFCAKEGRTGNWFDPWGQGTLVAVSS VL: DIQMTQSPSSLSASVGDRVTITCRASQAINNFLAWFQQKPGKTPKSLIFATSSLQSGVPSRFSGSESGTDFTLTISSLQPEDFATYYCQQYNSHPWTFGQGTKVEIK
0.36

Quickly give me recorded STAT6 Bioassay IC50 (HEK293 STAT6 luciferase, 10 pM hIL-4) for VX 4E7-9 (antibody, V domains shown, 387/389; Apparently tested with mouse constant region (anti-mouse IgG capture/detection)) VH: QVQLVQSGAEVKKPGASVKVSCKASGYTFTNYGISWVRQAPGQGLEWMGWISVYNGKTNYAQKLQGRVTMTTDTSTTTAYMEMRSLRSDDTAVYYCARGSGYDLDYWGQGTLVSVSS VL: AIQMTQSPSSLSASVGDRVTITCRASQGIRNALGWYQQKPGKAPKLLIYAASSLQSGVPSRFSGSGSGTDFTLTFSSLQPEDFATYYCLQDFNYPYTFGQGTKLEIK
7.9

Tell me measured STAT6 Bioassay IC50 (HEK293 STAT6 luciferase, 10 pM hIL-4) for VAK10G6-7 (antibody, V domains shown, Apparently tested with mouse constant region (anti-mouse IgG capture/detection)) VH: QVQLVESGGGVVQPGRSLRLSCTASGFTFSSFGMHWVRQAPGRGLEWVAVISYDGSKKYYADSVKVRFTISRDNSKNTLYLQMNSLRVDDTAVYFCAKEGRTGNWFDPWGQGTLVAVSS VL: DIQMTQSPSSLSASVGDRVTITCRASQAINNYLAWFQQKPGKTPKSLIFATSSLQSGVPSRFSGTGSGTDFTLTISSLQPEDFATYYCQQYNSHPWTFGQGTKVEIR please.
0.11

Return STAT6 Bioassay IC50 (HEK293 STAT6 luciferase, 10 pM hIL-4) for the following binder: VAB 10C1-5 (antibody, V domains shown, Apparently tested with mouse constant region (anti-mouse IgG capture/detection)) VH: QVQLVETGGDLVRPGGSLRLSCTASGFTLSDYYMSWIRQAPGKGLEWVSYIRRSGNTIYYADSVKGRFTISRDNAKNSLYLQMNSLRAEDTAVYYCARGGDWADVWGQGTTVTVSS VL: DIQMTQSPSSLSASVGDRVTITCRASQGISIYLAWFQQKPGKAPKSLIYAASSLQRGVPSKFSGSGSGTDFTLTISSLQPEDFATYYCQQYNSYPYTFGQGTKLEIK
1.9
